experiment: amyloid nucleation score (Sup35N fusion, yeast selection) (log enrichment); library NNK2; higher = more nucleation; inactive = no reads after selection;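 further: zero at mode of non-aggregating sequences after 7 days selection at 30°C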
experimental-endpoint: amyloid nucleation score

// below: answered substances
QSPNHVHSLRPGLDQLSALP    -0.08
AFYCQRDRVE    3.18
DFSLSGCPGMNRGDYDLHSK    inactive
RTTGTLLMRAESALPGRVVN    5.76
LQKWYGDD    1.58

Would you kindly look at the next entry?
Field amyloid nucleation score (entry NMYLDVRRSDGICGHIY ) reads -1.28

---

assay: amyloid nucleation score (Sup35N fusion, yeast selection) (log enrichment); library NNK1; higher = more nucleation; inactive = no reads after selection
experimental-endpoint: amyloid nucleation score
// return just the number, without any unit appended

// below: answered substances
SSVARIIWKFCRFSTVGVCF    0.858
PRYMTLGVVWSMSGWSESVQ    1.04

Field amyloid nucleation score (entry SLFQGERIPFGWNEGQTKDV ) reads -0.469

Field amyloid nucleation score (entry TSMLSGSWSRPDPLTDSSGD ) reads 0.517

Field amyloid nucleation score (entry VDRCGFGVFATVGMSCMDSF ) reads 0.918

Field amyloid nucleation score (entry TLLPARGGKKAR ) reads 0.256

Field amyloid nucleation score (entry IGLAICNLLFSTGWGYQPLW ) reads 5.75

Field amyloid nucleation score (entry LTGLVMTVCFFWKARRF ) reads 0.845

Field amyloid nucleation score (entry RVCQKCCPVVYAMNQWIFDW ) reads 7.54
